Task for the reader: assign each of the following compounds its reported pIC50.
pIC50: −log10 of the molar value.

Exercise: // fetch pIC50; item: CN(C)C/C=C/C(=O)N1CC[C@@H](n2nc(-c3ccc(Cl)cc3F)c3c(N)ncnc32)C1 [Example 7] ; system: BLK (Homo sapiens, UniProt P51451)
Sequence (P51451 whole entry): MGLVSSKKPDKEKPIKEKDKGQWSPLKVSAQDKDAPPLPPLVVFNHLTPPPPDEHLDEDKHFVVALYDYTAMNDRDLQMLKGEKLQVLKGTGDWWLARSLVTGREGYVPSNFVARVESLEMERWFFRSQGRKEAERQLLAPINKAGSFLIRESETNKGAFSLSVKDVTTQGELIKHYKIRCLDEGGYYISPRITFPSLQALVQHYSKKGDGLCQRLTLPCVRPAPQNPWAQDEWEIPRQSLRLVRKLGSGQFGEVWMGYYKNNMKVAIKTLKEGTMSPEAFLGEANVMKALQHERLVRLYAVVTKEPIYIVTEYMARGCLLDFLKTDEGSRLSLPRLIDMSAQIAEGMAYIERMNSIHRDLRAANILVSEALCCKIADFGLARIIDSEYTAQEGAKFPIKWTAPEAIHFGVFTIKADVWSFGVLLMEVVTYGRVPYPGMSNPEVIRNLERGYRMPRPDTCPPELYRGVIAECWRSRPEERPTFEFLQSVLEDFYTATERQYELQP
Solution: 6.00 to 7.00

Exercise: Look up BLK (Homo sapiens, UniProt P51451) data: pIC50 of CN(C)C/C=C/C(=O)N1CC[C@@H](n2nc(-c3ccc(F)cc3)c3c(N)ncnc32)C1 [Example 3] , then report it.
Solution: 6.00 to 7.00

Exercise: Please look at Cc1ccc(-c2nn([C@@H]3CCN(C(=O)/C=C/CN(C)C4CCC4)C3)c3ncnc(N)c23)cc1 [Example 12] and tell me its recorded pIC50 on BLK (Homo sapiens, UniProt P51451).
Solution: 6.00 to 7.00

Exercise: Lab note: record pIC50 of CN(C)C/C=C/C(=O)Nc1cccc(-n2nc(-c3ccc(Cl)cc3)c3c(N)ncnc32)c1 [Example 27] tested on BLK (Homo sapiens, UniProt P51451).
Solution: > 7.00

Exercise: Retrieve pIC50 on BLK (Homo sapiens, UniProt P51451); query CN(C)C/C=C/C(=O)N(C)c1ccc(-n2nc(-c3ccc(Cl)cc3)c3c(N)ncnc32)cc1 [Example 14]
Solution: 6.00 to 7.00

Exercise: # assay system BLK (Homo sapiens, UniProt P51451): give pIC50 of Cc1ccc(-c2nn([C@@H]3CCN(C(=O)/C=C/CN(C)C)C3)c3ncnc(N)c23)cc1 [Example 4]
Solution: > 7.00

Exercise: Provide pIC50, recorded with BLK (Homo sapiens, UniProt P51451), of COc1cc(-c2nn([C@@H]3CCN(C(=O)/C=C/CN(C)C)C3)c3ncnc(N)c23)ccc1C [Example 9]
Solution: > 7.00

Exercise: Write pIC50 of CN(C)C/C=C/C(=O)N1CC[C@@H](n2nc(-c3ccc(Cl)cc3)c3c(N)ncnc32)C1 [Example 1] ; system used: BLK (Homo sapiens, UniProt P51451)
Solution: > 7.00

Exercise: Give the observed pIC50 of CN(C(=O)/C=C/CN(C)C1CC1)c1cccc(-n2nc(-c3ccc(Cl)cc3)c3c(N)ncnc32)c1 [Example 25] for BLK (Homo sapiens, UniProt P51451).
Solution: 6.00 to 7.00
